# measured-on: TJP1_1, Q07157
# Sequence (Q07157 18-120): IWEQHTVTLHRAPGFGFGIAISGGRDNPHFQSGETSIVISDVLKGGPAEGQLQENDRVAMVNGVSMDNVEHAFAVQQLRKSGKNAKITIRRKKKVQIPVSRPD
# measurement-protocol: holdup assay
# Design: key: below the threshold = too weak to quantify, mostly under pKd 3.1 to 4
# condition-label: plain residues with an end cap or a label only (N-terminal biotin on a linker: ttds)
result-type: pKd

binder="RSLEEEESQL [GRASP, Q7Z6J2]" result_type=pKd data_value="below the threshold"
binder="QSARYRDTEL [TJP2, Q9UDY2]" result_type=pKd data_value="below the threshold"
binder="SSRTRRETQL [HPV16-E6, P03126]" result_type=pKd data_value=4.22
binder="SVWLRKETRV [CYSLTR2, Q9NS75]" result_type=pKd data_value=4.78
binder="SRPQRTQTQV [HPV67-E6, A4U7F2]" result_type=pKd data_value="below the threshold"

Sample PKTPPTDTSV [KIR3DL3, Q8N743] — what was its pKd? below the threshold

Sample STLTIFETAL [ABCC4, O15439] — what was its pKd? below the threshold
